Each recorded value in this set is attributed to ChEMBL document CHEMBL2424514.

Target: Glucagon receptor (Homo sapiens)
Assay: Inhibition of human glucagon receptor expressed in CHO cell membranes by radioligand displacement assay
pIC50: −log10 of the molar value.
Property measured: pIC50

Consider the following illustrative entries.
{"Molecule": "Clc1ccc(-c2nc(-c3ccncc3)c(-c3ccc(Cl)cc3)[nH]2)cc1", "Study system": "Glucagon receptor (Homo sapiens)", "Experimental value": 7.64}
{"Molecule": "CC(C)c1ccc(-c2nc(-c3ccc(F)cc3)c(-c3ccncc3)[nH]2)cc1", "Study system": "Glucagon receptor (Homo sapiens)", "Experimental value": 6.55}
{"Molecule": "Cc1cnccc1-c1nc(-c2ccc(Cl)cc2)[nH]c1-c1ccc(F)cc1", "Study system": "Glucagon receptor (Homo sapiens)", "Experimental value": 7.70}

(P) Fc1ccc(-c2nc(-c3ccc(Br)cc3)[nH]c2-c2ccncc2)cc1
(Q) Cc1ccc(-c2nc(-c3ccc(F)cc3)c(-c3ccncc3)[nH]2)cc1
input: Two entries are listed, P and Q . Which one carries the higher pIC50? Please identify the chosen entry by its label.
output: Q

====

Molecular target: Glucagon receptor (Homo sapiens)
Experiment: Inhibition of human glucagon receptor expressed in CHO cell membranes by radioligand displacement assay
Property measured: IC50 (nM)

(I) Fc1ccc(-c2[nH]c(-c3cccc(Br)c3)nc2-c2ccncc2)cc1
(II) Brc1ccc(-c2nc(-c3ccncc3)c(-c3ccccc3)[nH]2)cc1
input: Choose between I and II : whose measured IC50 value is numerically larger? Pick one; state its label.
output: I

(a) Clc1ccc(-c2nc(-c3ccc(I)cc3)c(-c3ccncc3)[nH]2)cc1
(b) CSc1ccc(-c2nc(-c3ccc(F)cc3)c(-c3ccncc3)n2C)cc1
input: Compare reported IC50 values for a and b . Which is lower? # respond with the chosen item's label
output: a

(A) N#Cc1ccc(-c2nc(-c3ccncc3)c(-c3ccc(F)cc3)[nH]2)cc1
(B) Fc1ccc(-c2[nH]c(-c3ccc(-c4ccccc4)cc3)nc2-c2ccncc2)cc1
input: Would you mind telling me which has the lower recorded IC50 between A and B ? Select an item and report its label.
output: A
(A: 210 nM, B: 301 nM)

(P) Clc1ccc(-c2nc(-c3ccncc3)c(-c3ccc(Oc4ccccc4)cc3)[nH]2)cc1
(Q) CCCOc1ccc(-c2[nH]c(-c3ccc(Cl)cc3)nc2-c2ccncc2)c(OCCC)c1
input: Task for the reader: decide whether P or Q has the larger IC50. Your answer should be the label of the entry you select.
output: Q

====

Target: Glucagon receptor (Homo sapiens, UniProt P47871)
Sequence (P47871 whole entry): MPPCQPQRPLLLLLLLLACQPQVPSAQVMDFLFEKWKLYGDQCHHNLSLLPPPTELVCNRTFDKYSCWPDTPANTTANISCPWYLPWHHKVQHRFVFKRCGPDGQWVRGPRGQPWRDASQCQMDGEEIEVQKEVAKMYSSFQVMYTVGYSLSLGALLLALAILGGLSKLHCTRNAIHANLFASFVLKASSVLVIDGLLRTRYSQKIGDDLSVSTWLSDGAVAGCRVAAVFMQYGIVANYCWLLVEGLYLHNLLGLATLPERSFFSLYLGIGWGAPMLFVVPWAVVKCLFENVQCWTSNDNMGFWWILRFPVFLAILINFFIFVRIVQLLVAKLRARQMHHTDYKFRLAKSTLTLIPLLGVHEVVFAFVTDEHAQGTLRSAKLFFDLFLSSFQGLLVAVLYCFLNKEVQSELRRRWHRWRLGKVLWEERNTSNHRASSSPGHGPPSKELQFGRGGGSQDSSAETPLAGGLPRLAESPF
Assay: Inhibition of human glucagon receptor expressed in CHO cell membranes by radioligand displacement assay
pIC50: −log10 of the molar value.
Property measured: pIC50

(P) Clc1ccc(-c2nc(-c3ccc(-c4ccccc4)cc3)c(-c3ccncc3)[nH]2)cc1
(Q) Fc1ccc(-c2nc(-c3ccc(Cl)cc3)[nH]c2-c2ccncc2)cc1
(R) Clc1ccc(-c2nc(-c3ccncc3)c(-c3ccccc3Oc3ccccc3)[nH]2)cc1
input: Give the descending pIC50 ranking for the 3 compounds listed above. Answer by writing out the labels in the requested order.
output: Q, R, P
(Q: 7.10, R: 6.82, P: 5.48)

====

Target: Glucagon receptor (Homo sapiens, UniProt P47871)
Experiment: Inhibition of human glucagon receptor expressed in CHO cell membranes by radioligand displacement assay
pIC50: −log10 of the molar value.
Property measured: pIC50

As a guide, the following entries are already answered.
{"Molecule": "Fc1ccc(-c2[nH]c(-c3ccc(I)cc3)nc2-c2ccncc2)cc1", "Study system": "Glucagon receptor (Homo sapiens, UniProt P47871)", "pIC50": 7.00}
{"Molecule": "Fc1ccc(-c2[nH]c(-c3ccccc3Br)nc2-c2ccncc2)cc1", "Study system": "Glucagon receptor (Homo sapiens, UniProt P47871)", "pIC50": 7.04}
{"Molecule": "Fc1ccc(-c2[nH]c(-c3ccc(Br)s3)nc2-c2ccncc2)cc1", "Study system": "Glucagon receptor (Homo sapiens, UniProt P47871)", "pIC50": 6.96}
{"Molecule": "Fc1ccc(-c2[nH]c(-c3cccc4ccccc34)nc2-c2ccncc2)cc1", "Study system": "Glucagon receptor (Homo sapiens, UniProt P47871)", "pIC50": 6.47}
{"Molecule": "Clc1ccc(-c2nc(-c3cccc(-c4ccccc4)c3)c(-c3ccncc3)[nH]2)cc1", "Study system": "Glucagon receptor (Homo sapiens, UniProt P47871)", "pIC50": 6.23}
{"Molecule": "Fc1ccc(-c2[nH]c(-c3ccc(Br)o3)nc2-c2ccncc2)cc1", "Study system": "Glucagon receptor (Homo sapiens, UniProt P47871)", "pIC50": 6.72}
{"Molecule": "CSc1ccc(-c2nc(-c3ccncc3)c(-c3ccc(F)cc3)n2C)cc1", "Study system": "Glucagon receptor (Homo sapiens, UniProt P47871)", "pIC50": 6.07}
{"Molecule": "CSc1ccc(-c2nc(-c3ccc(F)cc3)c(-c3ccncc3)o2)cc1", "Study system": "Glucagon receptor (Homo sapiens, UniProt P47871)", "pIC50": 6.03}
{"Molecule": "Clc1ccc(-c2nc(-c3ccncc3)c(-c3cccc(Oc4ccccc4)c3)[nH]2)cc1", "Study system": "Glucagon receptor (Homo sapiens, UniProt P47871)", "pIC50": 6.66}
{"Molecule": "Oc1ccc(-c2[nH]c(-c3ccc(Br)cc3)nc2-c2ccccc2)cc1", "Study system": "Glucagon receptor (Homo sapiens, UniProt P47871)", "pIC50": 7.00}

(P) Brc1ccc(-c2nc(-c3ccccc3)c(-c3ccccc3)[nH]2)cc1
(Q) Fc1ccc(-c2[nH]c(CCc3ccccc3)nc2-c2ccncc2)cc1
(R) Cc1cc(-c2[nH]c(-c3ccc(Cl)cc3)nc2-c2ccc(F)cc2)ccn1
input: Hey, quick one: sort these by pIC50, low to high? # answer = labels listed in requested order
output: P, Q, R
